Ref: ChEMBL document CHEMBL1122854

- Tested on: Trypanosoma brucei rhodesiense
- Assay Comment: Antitrypanosomal activity was evaluated against Trypanosoma rhodesiense infections in mice, at dose 424 mg/kg, administered subcutaneously
- Format: functional
- Experimental Context: route subcutaneous
Measure: Delta MST (days)
The figure you give is taken to be in days; do not add the unit.

[
  {
    "Chemical String": "CC1(C)N=C(N)N=C(N)N1c1ccc(OCCCCCCCCCCCCOc2ccc(N3C(N)=NC(N)=NC3(C)C)cc2)cc1.Cl.Cl",
    "Measure": "Delta MST",
    "Value Reported": 0.8
  },
  {
    "Chemical String": "CC1(C)N=C(N)N=C(N)N1c1ccc(SSc2ccc(N3C(N)=NC(N)=NC3(C)C)cc2)cc1.Cl.Cl",
    "Measure": "Delta MST",
    "Value Reported": 0.5
  }
]

Here is another compound to look at.
Looking for the measured Delta MST of CC1(C)N=C(N)N=C(N)N1c1cc(C(=O)O)cc(N2C(N)=NC(N)=NC2(C)C)c1.Cl.Cl , can you help?
-0.1
